Molecular target: Bcl-xL (Homo sapiens)
Sequence (Q07817 whole entry): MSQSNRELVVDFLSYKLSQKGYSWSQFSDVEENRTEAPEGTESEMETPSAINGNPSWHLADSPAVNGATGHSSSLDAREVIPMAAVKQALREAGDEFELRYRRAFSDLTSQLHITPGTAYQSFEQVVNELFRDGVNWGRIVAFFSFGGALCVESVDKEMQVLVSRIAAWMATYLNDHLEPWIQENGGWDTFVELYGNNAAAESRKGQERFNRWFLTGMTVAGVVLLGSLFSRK
Test: SPR binding to immobilized Bcl-xL
Conditions: 25 °C, 2-site fit, highest affinity site
OBSERVABLE: pKd
# log scale: pKd equals minus log10 of the concentration in mol/L

INSERT INTO measurements (compound, test_target, observable, experimental_value) VALUES
  ('CCCCOc1ccc(C2/C(=C(\O)c3ccc4c(c3)CC(C)O4)C(=O)C(=O)N2c2nnc(SCc3ccc(Cl)cc3)s2)cc1OCC (centres unmarked)', 'Bcl-xL (Homo sapiens)', 'pKd', 6.38);

Okay, next one:
Query block: Find the recorded pKd belonging to CCCCCOc1ccc(C2/C(=C(\O)c3ccc4c(c3)CC(C)O4)C(=O)C(=O)N2c2nnc(SCc3ccc(Cl)cc3)s2)cc1OCC (centres unmarked) and report it.
Result block: 6.29

---

Target: Bcl-2 (Homo sapiens, UniProt P10415)
Sequence (P10415 whole entry): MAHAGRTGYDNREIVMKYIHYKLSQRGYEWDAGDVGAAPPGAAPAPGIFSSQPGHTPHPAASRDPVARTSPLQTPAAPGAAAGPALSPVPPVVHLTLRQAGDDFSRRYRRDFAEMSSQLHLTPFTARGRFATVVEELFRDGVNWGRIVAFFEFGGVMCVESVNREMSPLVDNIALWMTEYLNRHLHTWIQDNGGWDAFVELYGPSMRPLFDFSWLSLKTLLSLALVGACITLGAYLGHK
Assay: SPR binding to immobilized Bcl-2
Details: SPR, 25 °C, 2-site fit, highest affinity site
Protocol: FastStep experiments were performed with a SensiQ Pioneer apparatus. Bcl-2 immobilization on COOH5 sensorchips was carried out essentially as previously reported, [40]. All the experiments were carried out at 25 °C in degassed HEPES 20 mM, pH 7.4, NaCl 150 mM, 0.005% surfactant P20 + 2% DMSO (HBSP2%D). […] Each sensorgram is the average of at least three experiments. […]
hey, just use T if measured Kd is less than 800 nM, otherwise F

Query block: Decide: Kd of CC(C)(C)c1ccc(-c2nnc(SCc3ccccc3F)n2N)cc1 strictly below 800 nM?
Result block: F

Query block: Decide: Kd of CCCCOc1ccc(C2/C(=C(\O)c3ccc4c(c3)CC(C)O4)C(=O)C(=O)N2c2nnc(SCc3ccc(Cl)cc3)s2)cc1OCC (stereo not drawn) strictly below 800 nM?
Result block: T

Query block: Decide: Kd of COc1ccc(-c2cc(C(F)F)nc(N3CCN(Cc4ccccc4C)CC3)n2)cc1OC strictly below 800 nM?
Result block: T

---

Recorded Tmax, one value per entry.
Assay: Pharmacokinetics in mouse plasma (LC-MS/MS)
Type: in vivo, C57/Bl6 mice
Details: C57/Bl6, mouse, plasma, ip; mice, intraperitoneal, 100 mg/kg; read-out: time of maximum plasma concentration after injection
The answer is to be given in h; state only the numeric part.

INSERT INTO results (compound, experimental_value) VALUES
  ('CCCCCOc1ccc(C2/C(=C(\O)c3ccc4c(c3)CC(C)O4)C(=O)C(=O)N2c2nnc(SCc3ccc(Cl)cc3)s2)cc1OCC (centres unmarked)', 4);

Query block: Find the recorded Tmax belonging to CCCCOc1ccc(C2/C(=C(\O)c3ccc4c(c3)CC(C)O4)C(=O)C(=O)N2c2nnc(SCc3ccc(Cl)cc3)s2)cc1OCC (centres unmarked) and report it.
Result block: 16

---

Test system: M14 cells
Assay: Western blot of PARP1 cleavage, M14
Assay type: cell-based, Human
Conditions: 72 h
OBSERVABLE: PARP1 cleavage, M14

INSERT INTO assay_data (molecule, observable, experimental_value) VALUES
  ('CC1(C)CCC(CN2CCN(c3ccc(C(=O)NS(=O)(=O)c4ccc(NCC5CCOCC5)c([N+](=O)[O-])c4)c(Oc4cnc5[nH]ccc5c4)c3)CC2)=C(c2ccc(Cl)cc2)C1 [ABT-199, venetoclax, reference compound]', 'PARP1 cleavage, M14', 'PARP1 cleavage'),
  ('CC1(C)CCC(c2ccc(Cl)cc2)=C(CN2CCN(c3ccc(C(=O)NS(=O)(=O)c4ccc(N[C@H](CCN5CCOCC5)CSc5ccccc5)c(S(=O)(=O)C(F)(F)F)c4)cc3)CC2)C1 [ABT-263, navitoclax, reference compound]', 'PARP1 cleavage, M14', 'PARP1 cleavage'),
  ('CCCCOc1ccc(C2/C(=C(\O)c3ccc4c(c3)CC(C)O4)C(=O)C(=O)N2c2nnc(SCc3ccc(Cl)cc3)s2)cc1OCC (stereo not shown)', 'PARP1 cleavage, M14', 'cleavage of PARP1'),
  ('CCCCCOc1ccc(C2/C(=C(\O)c3ccc4c(c3)CC(C)O4)C(=O)C(=O)N2c2nnc(SCc3ccc(Cl)cc3)s2)cc1OCC (stereo not shown)', 'PARP1 cleavage, M14', 'cleavage of PARP1');
